- Test system: human ovarian cancer SK-OV-3
- PARTICULARS: D4; 24 mg/kg (paclitaxel 16 mg/kg) D0-4 IV
Let's look at some compounds and their measured Weight change (%) D4.
# value in %; strip the unit string

In the examples that follow, each entry is paired with its recorded Weight change (%) D4.
CC(=O)O[C@H]1C(=O)[C@@]2(C)[C@H]([C@H](OC(=O)c3ccccc3)[C@]3(O)C[C@H](OC(=O)[C@H](OC(=O)C(F)CCN(C)C)[C@@H](NC(=O)c4ccccc4)c4ccccc4)C(C)=C1C3(C)C)[C@]1(OC(C)=O)CO[C@@H]1C[C@@H]2O.CS(=O)(=O)O (stereo partly shown) | −6.0
CC(=O)O[C@H]1C(=O)[C@@]2(C)[C@H]([C@H](OC(=O)c3ccccc3)[C@]3(O)C[C@H](OC(=O)[C@H](OC(=O)[C@H](F)CCN(C)C)[C@@H](NC(=O)c4ccccc4)c4ccccc4)C(C)=C1C3(C)C)[C@]1(OC(C)=O)CO[C@@H]1C[C@@H]2O.CS(=O)(=O)O | −5.9
CC(=O)OC1C(=O)C2(C)C(O)CC3OCC3(OC(C)=O)C2C(OC(=O)c2ccccc2)C2(O)CC(OC(=O)C(OC(=O)C(CCCCN(C)C)C(F)F)C(NC(=O)c3ccccc3)c3ccccc3)C(C)=C1C2(C)C.O=S(=O)(O)O (stereo not shown) | −11.6

# input for lookup
Exam item: // query Weight change (%) D4 value for entry `CC(=O)O[C@H]1C(=O)[C@@]2(C)[C@H]([C@H](OC(=O)c3ccccc3)[C@]3(O)C[C@H](OC(=O)[C@H](OC(=O)[C@@H](F)CCN(C)C)[C@@H](NC(=O)c4ccccc4)c4ccccc4)C(C)=C1C3(C)C)[C@]1(OC(C)=O)CO[C@@H]1C[C@@H]2O.CS(=O)(=O)O`
Marked response: −5.8

###

Catalogue of TI Mouse readings, one per entry.
- System: KM mice
- ASSAY COMMENT: ED50 and LD50 test concerning anesthesia (sequential method) in mice
- Type: in vivo
- PARTICULARS: 6 mg/ml solution, first test
Marks after values point to notes of the source that are not given here.

Reference set, count: 3
CC(C)c1cccc(C(C)C)c1OC(=O)[C@H](F)CCN(C)C.Cl [Compound E2] | 3.6*
CC(C)c1cccc(C(C)C)c1OC(=O)C(F)CCC(=O)[O-].[Na+] (racemic) | 2.7*
CC(C)c1cccc(C(C)C)c1OC(=O)[C@@H](F)CCOP(=O)([O-])[O-].[Na+].[Na+] | 1.9*

Field: next compound
Exam item: May I ask what TI Mouse has been recorded for CC(C)c1cccc(C(C)C)c1OC(=O)C(F)CC(=O)[O-].[Na+] (stereo not shown) ?
Marked response: 2.4*

###

- PARTICULARS: formula G derivatives; rabbit plasma, 37° C., sampling time 15 s
MEASURED ENDPOINT: Sampling time/dissociation percent (%) 15 S
Please respond with the number in % and leave the unit unwritten.

In the examples that follow, each entry is paired with its recorded Sampling time/dissociation percent (%) 15 S.
CC(C)c1cccc(C(C)C)c1OC(=O)[C@@H](F)CCOP(=O)([O-])[O-].[Na+].[Na+] | 37.2
CC(C)c1cccc(C(C)C)c1OC(=O)[C@@H](CCOP(=O)([O-])[O-])C(F)(F)F.[Li+].[Li+] | 21.7
CC(C)c1cccc(C(C)C)c1OC(=O)C(F)CCOP(=O)([O-])[O-].[K+].[K+] (racemic) | 43.7

Then there is this molecule:
Exam item: For the molecule shown here, CC(C)c1cccc(C(C)C)c1OC(=O)C(CF)CP(=O)([O-])[O-].CC(C)c1cccc(C(C)C)c1OC(=O)C(CF)CP(=O)([O-])[O-].CC(C)c1cccc(C(C)C)c1OC(=O)C(CF)CP(=O)([O-])[O-].[Al+3].[Al+3] (racemic) , give the reported Sampling time/dissociation percent (%) 15 S.
Marked response: 27.1

###

Listing of recorded dissociation percent by entry.
- ASSAY COMMENT: In vitro dissociation of the water soluble taxane derivatives in blood plasma of rat
- Assay type: in vitro ADME, SD rats
- PARTICULARS: 37° C., 2 min

CC(=O)O[C@@]12CO[C@@H]1C[C@H](O)[C@@]1(C)C(=O)[C@H](O)C3=C(C)[C@@H](OC(=O)[C@H](OC(=O)[C@@H](F)CCN(C)C)[C@@H](NC(=O)OC(C)(C)C)c4ccccc4)C[C@@](O)([C@@H](OC(=O)c4ccccc4)[C@H]21)C3(C)C.CS(=O)(=O)O | 58.9%

Exam item: // query dissociation percent value for entry `CC(=O)O[C@@]12CO[C@@H]1C[C@H](O)[C@@]1(C)C(=O)[C@H](O)C3=C(C)[C@@H](OC(=O)[C@H](OC(=O)[C@@H](F)CCN(C)C)[C@@H](NC(=O)OC(C)(C)C)c4ccccc4)C[C@@](O)([C@@H](OC(=O)c4ccccc4)[C@H]21)C3(C)C.Cl`
Marked response: 56.4%

Exam item: Record request: dissociation percent value, item CC(=O)O[C@@]12CO[C@@H]1C[C@H](O)[C@@]1(C)C(=O)[C@H](O)C3=C(C)[C@@H](OC(=O)[C@H](OC(=O)C(F)CCN(C)C)[C@@H](NC(=O)OC(C)(C)C)c4ccccc4)C[C@@](O)([C@@H](OC(=O)c4ccccc4)[C@H]21)C3(C)C.CS(=O)(=O)O (stereo partly shown)
Marked response: 59.1%

Exam item: Endpoint output: dissociation percent of CC(=O)O[C@H]1C(=O)[C@@]2(C)[C@H]([C@H](OC(=O)c3ccccc3)[C@]3(O)C[C@H](OC(=O)[C@H](OC(=O)C(F)CCN(C)C)[C@@H](NC(=O)c4ccccc4)c4ccccc4)C(C)=C1C3(C)C)[C@]1(OC(C)=O)CO[C@@H]1C[C@@H]2O.Cl (stereo partly shown) . Value?
Marked response: 61.8%

Exam item: Find the recorded dissociation percent belonging to CC(=O)O[C@H]1C(=O)[C@@]2(C)[C@H]([C@H](OC(=O)c3ccccc3)[C@]3(O)C[C@H](OC(=O)[C@H](OC(=O)C(F)(CCCCCCN(C)C4CCCC4)C(F)(F)F)[C@@H](NC(=O)c4ccccc4)c4ccccc4)C(C)=C1C3(C)C)[C@]1(OC(C)=O)CO[C@@H]1C[C@@H]2O.CS(=O)(=O)O (stereo partly shown) and report it.
Marked response: 35.0%

Exam item: Give its dissociation percent value. Item: `CC(=O)O[C@H]1C(=O)[C@@]2(C)[C@H]([C@H](OC(=O)c3ccccc3)[C@]3(O)C[C@H](OC(=O)[C@H](OC(=O)[C@@H](F)CCN(C)C)[C@@H](NC(=O)c4ccccc4)c4ccccc4)C(C)=C1C3(C)C)[C@]1(OC(C)=O)CO[C@@H]1C[C@@H]2O.CS(=O)(=O)O`
Marked response: 62.8%

Exam item: I'd like to know its dissociation percent. The compound in question is `CO[C@H]1C(=O)[C@]2(C)[C@@H](OC)C[C@H]3OC[C@@]3(OC(C)=O)[C@H]2[C@H](OC(=O)c2ccccc2)[C@]2(O)C[C@H](OC(=O)[C@H](OC(=O)[C@@H](F)CCN(C)C)[C@@H](NC(=O)OC(C)(C)C)c3ccccc3)C(C)=C1C2(C)C.CS(=O)(=O)O`
Marked response: 49.4%

Exam item: Report dissociation percent for `CCN(CC)CC[C@](C)(C(=O)O[C@@H](C(=O)O[C@H]1C[C@@]2(O)[C@@H](OC(=O)c3ccccc3)[C@@H]3[C@]4(OC(C)=O)CO[C@@H]4C[C@H](OC)[C@@]3(C)C(=O)[C@H](OC)C(=C1C)C2(C)C)[C@@H](NC(=O)OC(C)(C)C)c1ccccc1)C(F)(F)F.CS(=O)(=O)O` please.
Marked response: 52.3%

Exam item: # dissociation percent lookup, item `CC(=O)O[C@H]1C(=O)[C@@]2(C)[C@H]([C@H](OC(=O)c3ccccc3)[C@]3(O)C[C@H](OC(=O)[C@H](OC(=O)[C@H](F)CCN(C)C)[C@@H](NC(=O)c4ccccc4)c4ccccc4)C(C)=C1C3(C)C)[C@]1(OC(C)=O)CO[C@@H]1C[C@@H]2O.CS(=O)(=O)O`
Marked response: 64.3%

Exam item: Using the record for CO[C@H]1C(=O)[C@]2(C)[C@@H](OC)C[C@H]3OC[C@@]3(OC(C)=O)[C@H]2[C@H](OC(=O)c2ccccc2)[C@]2(O)C[C@H](OC(=O)[C@H](OC(=O)C(F)CCN(C)C)[C@@H](NC(=O)OC(C)(C)C)c3ccccc3)C(C)=C1C2(C)C.CS(=O)(=O)O (stereo partly shown) , report its dissociation percent.
Marked response: 49.3%

###

- ASSAY COMMENT: In vitro dissociation of the water soluble taxane derivatives in blood plasma of rabbit
- Assay type: in vitro ADME, New Zealand white rabbits
- PARTICULARS: 37° C., 60 min
Documented dissociation percent across a set of compounds
Remember to follow the number with its unit.

Exam item: Which dissociation percent value is on record for CC(=O)O[C@H]1C(=O)[C@@]2(C)[C@H]([C@H](OC(=O)c3ccccc3)[C@]3(O)C[C@H](OC(=O)[C@H](OC(=O)[C@H](F)CCN(C)C)[C@@H](NC(=O)c4ccccc4)c4ccccc4)C(C)=C1C3(C)C)[C@]1(OC(C)=O)CO[C@@H]1C[C@@H]2O.Cl [Compound 01] ?
Marked response: 100%

Exam item: Record request: dissociation percent value, item COC1C(=O)C2(C)C(OC)CC3OCC3(OC(C)=O)C2C(OC(=O)c2ccccc2)C2(O)CC(OC(=O)C(OC(=O)C(CCN)C(F)F)C(NC(=O)OC(C)(C)C)c3ccccc3)C(C)=C1C2(C)C.O=S(=O)([O-])O.[Na+] (stereo not shown) [Compound 10]
Marked response: 80.3%

Exam item: So what's the measured dissociation percent for this one? CO[C@H]1C(=O)[C@]2(C)[C@@H](OC)C[C@H]3OC[C@@]3(OC(C)=O)[C@H]2[C@H](OC(=O)c2ccccc2)[C@]2(O)C[C@H](OC(=O)[C@H](OC(=O)[C@@H](F)CCN(C)C)[C@@H](NC(=O)OC(C)(C)C)c3ccccc3)C(C)=C1C2(C)C.CS(=O)(=O)O [Compound C8]
Marked response: 100%

Exam item: Please look up its dissociation percent: CC(=O)O[C@H]1C(=O)[C@@]2(C)[C@H]([C@H](OC(=O)c3ccccc3)[C@]3(O)C[C@H](OC(=O)[C@H](OC(=O)C(F)CCN(C)C)[C@@H](NC(=O)c4ccccc4)c4ccccc4)C(C)=C1C3(C)C)[C@]1(OC(C)=O)CO[C@@H]1C[C@@H]2O.CS(=O)(=O)O (stereo partly shown) [Compound C3]
Marked response: 100%

Sourced from patent US10239851B2
